As shown below, each of these molecules has a reported melting point value.

// below: answered molecules
# sample_smiles, melting point
rows = [
    ("Cc1nc2cc(NC(=O)c3cc4ncccc4n3Cc3cccc(F)c3)ccc2n1C", "245 to 247 °C"),
    ("Cc1nc2cc(NC(=O)c3cc4cccnc4n3-c3ccccc3)ccc2n1C", "286 to 288 °C"),
]

// moving on: another record for melting point
-- ask Which melting point is reported for this molecule? `Cc1nc2cc(NC(=O)c3cc4cc(Cl)ncc4n3Cc3cccc(F)c3)ccc2n1C`
-- reply 240 to 242 °C
